Molecular target: Butyrylcholinesterase (Equus caballus, UniProt Q9N1N9)
Test: Inhibition of horse serum BuChE using butyrylthiocholine chloride by spectrophotometry
ASSAY ENDPOINT: IC50 (µM)
Answers are plain numbers, in µM.

Which IC50 value belongs to Cn1ncc2c1-c1c(Br)sc(Br)c1C2NC(=O)CN1CCN(Cc2ccccc2)CC1 (stereo unspecified) ?
7.76

----------
Biological target: Acetylcholinesterase (Electrophorus electricus, UniProt O42275)
Sequence (O42275 whole entry): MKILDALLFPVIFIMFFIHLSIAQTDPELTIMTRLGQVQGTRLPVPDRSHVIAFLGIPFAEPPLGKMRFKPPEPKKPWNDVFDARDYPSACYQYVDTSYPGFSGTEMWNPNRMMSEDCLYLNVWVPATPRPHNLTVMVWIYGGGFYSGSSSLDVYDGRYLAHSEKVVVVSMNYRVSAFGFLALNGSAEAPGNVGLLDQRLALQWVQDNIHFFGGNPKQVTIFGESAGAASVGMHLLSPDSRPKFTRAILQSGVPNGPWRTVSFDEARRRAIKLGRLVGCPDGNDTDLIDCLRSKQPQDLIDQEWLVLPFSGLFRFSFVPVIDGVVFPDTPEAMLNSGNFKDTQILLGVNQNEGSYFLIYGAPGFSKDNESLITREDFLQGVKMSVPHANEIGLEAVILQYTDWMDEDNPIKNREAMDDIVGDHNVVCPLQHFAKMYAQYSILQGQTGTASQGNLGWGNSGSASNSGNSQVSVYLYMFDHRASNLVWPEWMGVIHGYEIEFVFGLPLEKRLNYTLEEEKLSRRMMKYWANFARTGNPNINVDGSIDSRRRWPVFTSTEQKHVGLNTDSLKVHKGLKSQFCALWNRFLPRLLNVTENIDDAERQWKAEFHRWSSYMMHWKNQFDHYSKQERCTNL
Assay: Non-competitive inhibition of electric eel AChE using acetylthiocholine chloride by Lineweaver-Burk plot method and Ellman's method based spectrophotometry
ASSAY ENDPOINT: pKi
Answers are plain numbers, as −log10 of the molar value.

Which pKi value belongs to Cn1ncc2c1-c1c(Br)sc(Br)c1C2NC(=O)CN1CCN(Cc2ccccc2F)CC1 (stereo unspecified) ?
6.37
